# ASSAY PROTOCOL: Storage stability, residual activity by Bratton-Marshall assay
# CONDITION DETAILS: half life, storing at 25° C.
OBSERVATION TYPE: half-life (h)
Give the value in h but do not write h after it.

Data request, read-out half-life, for O=NN(CCCl)C(=O)NCCCl
22
